Origin of the recorded values: paper PMC4445455

# target_system: human DHFR (Homo sapiens, UniProt P00374)
# Sequence (P00374 whole entry): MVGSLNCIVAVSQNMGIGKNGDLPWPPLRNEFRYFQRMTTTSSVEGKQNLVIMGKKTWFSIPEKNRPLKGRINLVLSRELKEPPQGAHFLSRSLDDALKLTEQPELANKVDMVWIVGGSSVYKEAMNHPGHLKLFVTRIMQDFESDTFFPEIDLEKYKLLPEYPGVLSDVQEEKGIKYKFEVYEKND
# Format: biochemical
# run_conditions: IC-50, human DHFR; table footnote to ND
quantity_name: IC50

Which measured IC50 belongs to C1=Cc2ccccc2Nc2ccccc21 , tested on human DHFR (Homo sapiens, UniProt P00374)?
> 2000 µM

---

# target_system: E. coli DHFR (Escherichia coli)
# test_details: Inhibition kinetics: substrate titration at fixed inhibitor concentrations
# Type: biochemical
quantity_name: Ki (nM)
// units = nM; emit number, no label

Which measured Ki belongs to Nc1nc(N)c2c(ccc3[nH]ccc32)n1 [PQD, 7H-Pyrrolo(3,2-f)quinazoline-1,3-diamine, reference compound] , tested on E. coli DHFR (Escherichia coli)?
3.18

---

# target_system: E. coli DHFR (Escherichia coli)
# test_details: Progress curve analysis, slow tight binding
# Assay type: biochemical
quantity_name: Kd
Your reply should be a number followed by the unit it is expressed in.

For Nc1nc(N)c2c(ccc3[nH]ccc32)n1 [PQD, 7H-Pyrrolo(3,2-f)quinazoline-1,3-diamine, reference compound] , what is its reported Kd?
4.48 nM

---

In what follows, each item is paired with its Ki for human DHFR (Homo sapiens, UniProt P00374).
// units = µM; emit number, no label

Reference set (2 entries):
compound | target_system | Ki [µM]
Nc1nc(N)c2c(ccc3[nH]ccc32)n1 [PQD, 7H-Pyrrolo(3,2-f)quinazoline-1,3-diamine, reference compound] | human DHFR (Homo sapiens, UniProt P00374) | 0.0934
Nc1ccc(NC(=O)c2ccc(C(=O)Nc3ccc(N)cc3)cc2)cc1 | human DHFR (Homo sapiens, UniProt P00374) | 5.16

// switching to the query compound
Which measured Ki belongs to O=C(Nc1ccc(Oc2ccc(NC(=O)Nc3ccc([N+](=O)[O-])cc3)cc2)cc1)Nc1ccc([N+](=O)[O-])cc1 , tested on human DHFR (Homo sapiens, UniProt P00374)?
1.97

---

# IC50 annotations
# target_system: E. coli DHFR (Escherichia coli, UniProt P0ABQ4)
# Sequence (P0ABQ4 whole entry): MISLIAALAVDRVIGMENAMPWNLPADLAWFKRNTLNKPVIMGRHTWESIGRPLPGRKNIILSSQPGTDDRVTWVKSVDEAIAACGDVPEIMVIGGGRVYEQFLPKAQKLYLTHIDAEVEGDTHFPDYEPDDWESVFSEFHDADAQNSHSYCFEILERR
# Assay type: biochemical

compound | target_system | IC50
O=C(Nc1ccc(Oc2ccc(NC(=O)Nc3ccc([N+](=O)[O-])cc3)cc2)cc1)Nc1ccc([N+](=O)[O-])cc1 [NNCPPU] | E. coli DHFR (Escherichia coli, UniProt P0ABQ4) | 36.6 µM

For Nc1ccc(NC(=O)c2ccc(C(=O)Nc3ccc(N)cc3)cc2)cc1 [NNBABD] , what is its reported IC50?
176 µM

Also need Nc1nc(N)c2c(ccc3[nH]ccc32)n1 [PQD, 7H-Pyrrolo(3,2-f)quinazoline-1,3-diamine, reference compound] , thanks.
0.106 µM

Also need C1=Cc2ccccc2Nc2ccccc21 [ISB, 2,2'-Iminostilbene] , thanks.
588 µM

---

# target_system: E. coli DHFR (Escherichia coli)
# Type: biochemical
# Ki annotations

Reference set (3 entries):
compound | Ki
O=C(Nc1ccc(Oc2ccc(NC(=O)Nc3ccc([N+](=O)[O-])cc3)cc2)cc1)Nc1ccc([N+](=O)[O-])cc1 | 2.06 µM
Nc1ccc(NC(=O)c2ccc(C(=O)Nc3ccc(N)cc3)cc2)cc1 | 10.9 µM
Nc1nc(N)c2c(ccc3[nH]ccc32)n1 [PQD, 7H-Pyrrolo(3,2-f)quinazoline-1,3-diamine, reference compound] | 0.0042 µM

// switching to the query compound
For C1=Cc2ccccc2Nc2ccccc21 , what is its reported Ki?
35.2 µM
